System: Escherichia coli TOP10
Test: shrunken log2 fold change of peptide-encoding DNA abundance (4.5 h post-induction vs induction); higher = less antimicrobial activity (less host growth inhibition)
Conditions: time post-induction: 4.5 h; library: site-saturation at positions 5, 18, 19, 20
Measured property: shrunken log2 fold change
Please respond with just the number, no unit label.

Some sequences with recorded shrunken log2 fold change:
RRIRDRPPRLPRPRPRPSPIPRP = 0.0798
RRIRARPPRLPRPRPRPAYEPRP = 0.0749
RRIRWRPPRLPRPRPRPHMNPRP = -0.667

// query Provide value of shrunken log2 fold change for this record tested with Escherichia coli TOP10: RRIRPRPPRLPRPRPRPQPSPRP
// result 0.641

// query Provide value of shrunken log2 fold change for this record tested with Escherichia coli TOP10: RRIRLRPPRLPRPRPRPHETPRP
// result -0.236

// query Provide value of shrunken log2 fold change for this record tested with Escherichia coli TOP10: RRIRERPPRLPRPRPRPIMHPRP
// result -0.462

###

Test system: Escherichia coli TOP10
Assay: shrunken log2 fold change of peptide-encoding DNA abundance (4.5 h post-induction vs induction); higher = less antimicrobial activity (less host growth inhibition)
Conditions: time post-induction: 4.5 h; library: site-saturation at positions 5, 18, 19, 20
Measured property: shrunken log2 fold change

RRIRMRPPRLPRPRPRPSDWPRP = 0.998

Then there is this sequence:
// query Provide value of shrunken log2 fold change for this record tested with Escherichia coli TOP10: RRIRARPPRLPRPRPRPHCGPRP
// result 0.507

###

Tested on: Escherichia coli TOP10
Assay: shrunken log2 fold change of peptide-encoding DNA abundance (4.5 h post-induction vs induction); higher = less antimicrobial activity (less host growth inhibition)
Details: time post-induction: 4.5 h; library: site-saturation at positions 5, 18, 19, 20
# shrunken log2 fold change binned as low-valued: < -0.2; mid-valued: ≥ -0.2 and < 0.3; high-valued: ≥ 0.3

Look over these answered cases.
RRIRWRPPRLPRPRPRPINYPRP = low-valued
RRIRVRPPRLPRPRPRPQIWPRP = mid-valued
RRIRIRPPRLPRPRPRPVNAPRP = mid-valued
RRIRFRPPRLPRPRPRPMFGPRP = high-valued
RRIRGRPPRLPRPRPRPKHFPRP = mid-valued

// query Would you mind sorting RRIRWRPPRLPRPRPRPGDMPRP into the appropriate category?
// result high-valued

// query Would you mind sorting RRIRWRPPRLPRPRPRPAFQPRP into the appropriate category?
// result high-valued

// query Would you mind sorting RRIRNRPPRLPRPRPRPLMAPRP into the appropriate category?
// result mid-valued

// query Would you mind sorting RRIRWRPPRLPRPRPRPYFYPRP into the appropriate category?
// result low-valued

// query Would you mind sorting RRIRERPPRLPRPRPRPSHEPRP into the appropriate category?
// result mid-valued

// query Would you mind sorting RRIRCRPPRLPRPRPRPCQTPRP into the appropriate category?
// result low-valued

// query Would you mind sorting RRIRSRPPRLPRPRPRPAFNPRP into the appropriate category?
// result mid-valued

// query Would you mind sorting RRIRGRPPRLPRPRPRPGSPPRP into the appropriate category?
// result high-valued

// query Would you mind sorting RRIRGRPPRLPRPRPRPEANPRP into the appropriate category?
// result high-valued

// query Would you mind sorting RRIRCRPPRLPRPRPRPVYPPRP into the appropriate category?
// result low-valued

###

System: Escherichia coli TOP10
Assay: shrunken log2 fold change of peptide-encoding DNA abundance (4.5 h post-induction vs induction); higher = less antimicrobial activity (less host growth inhibition)
Conditions: time post-induction: 4.5 h; library: site-saturation at positions 5, 18, 19, 20
Entries annotated with measured shrunken log2 fold change
Please respond with just the number, no unit label.

Some sequences with recorded shrunken log2 fold change:
RRIRMRPPRLPRPRPRPHLPPRP = -0.00448
RRIRIRPPRLPRPRPRPSFRPRP = -0.671
RRIRGRPPRLPRPRPRPQKSPRP = 0.316
RRIRLRPPRLPRPRPRPWCWPRP = 0.0542
RRIRKRPPRLPRPRPRPCRVPRP = 0.0931
RRIRPRPPRLPRPRPRPWFSPRP = -0.255
RRIRTRPPRLPRPRPRPGMKPRP = -0.0344
RRIRLRPPRLPRPRPRPPCDPRP = -0.29
RRIRERPPRLPRPRPRPADNPRP = -0.03
RRIRVRPPRLPRPRPRPACKPRP = -0.0847

// query Provide value of shrunken log2 fold change for this record tested with Escherichia coli TOP10: RRIRPRPPRLPRPRPRPMWWPRP
// result 0.189

// query Provide value of shrunken log2 fold change for this record tested with Escherichia coli TOP10: RRIRLRPPRLPRPRPRPYRSPRP
// result -0.0017

// query Provide value of shrunken log2 fold change for this record tested with Escherichia coli TOP10: RRIRARPPRLPRPRPRPFNIPRP
// result -0.307

// query Provide value of shrunken log2 fold change for this record tested with Escherichia coli TOP10: RRIRTRPPRLPRPRPRPNNFPRP
// result -0.381

// query Provide value of shrunken log2 fold change for this record tested with Escherichia coli TOP10: RRIRNRPPRLPRPRPRPSTIPRP
// result 0.0179

###

Test system: Escherichia coli TOP10
Assay: shrunken log2 fold change of peptide-encoding DNA abundance (4.5 h post-induction vs induction); higher = less antimicrobial activity (less host growth inhibition)
Conditions: time post-induction: 4.5 h; library: site-saturation at positions 5, 18, 19, 20
Values of shrunken log2 fold change greater than or equal to -0.1 map to class 1; values below map to class 0.

Look over these answered cases.
RRIRLRPPRLPRPRPRPYHKPRP = class 0
RRIRRRPPRLPRPRPRPYKAPRP = class 0
RRIRYRPPRLPRPRPRPSQKPRP = class 0
RRIRFRPPRLPRPRPRPTPCPRP = class 1
RRIRRRPPRLPRPRPRPDWTPRP = class 0
RRIRQRPPRLPRPRPRPSQMPRP = class 1

// query Given RRIRLRPPRLPRPRPRPVNHPRP , state whether its shrunken log2 fold change is at least -0.1.
// result class 1

// query Given RRIRRRPPRLPRPRPRPQDLPRP , state whether its shrunken log2 fold change is at least -0.1.
// result class 1

// query Given RRIRRRPPRLPRPRPRPEGCPRP , state whether its shrunken log2 fold change is at least -0.1.
// result class 1

// query Given RRIRERPPRLPRPRPRPHEVPRP , state whether its shrunken log2 fold change is at least -0.1.
// result class 1

###

Tested on: Escherichia coli TOP10
Experiment: shrunken log2 fold change of peptide-encoding DNA abundance (4.5 h post-induction vs induction); higher = less antimicrobial activity (less host growth inhibition)
Details: time post-induction: 4.5 h; library: site-saturation at positions 5, 18, 19, 20
# shrunken log2 fold change binned as low = under -0.07, medium = from -0.07 up to 0.2, high = 0.2 and over

Look over these answered cases.
RRIRKRPPRLPRPRPRPVYHPRP = medium
RRIRERPPRLPRPRPRPYWCPRP = low
RRIRFRPPRLPRPRPRPVWEPRP = medium

// query Would you mind sorting RRIRYRPPRLPRPRPRPLTMPRP into the appropriate category?
// result low

// query Would you mind sorting RRIRWRPPRLPRPRPRPSANPRP into the appropriate category?
// result high

// query Would you mind sorting RRIRERPPRLPRPRPRPMCIPRP into the appropriate category?
// result low

// query Would you mind sorting RRIRNRPPRLPRPRPRPDWVPRP into the appropriate category?
// result medium

// query Would you mind sorting RRIRIRPPRLPRPRPRPCWKPRP into the appropriate category?
// result medium

// query Would you mind sorting RRIRHRPPRLPRPRPRPQTCPRP into the appropriate category?
// result low

// query Would you mind sorting RRIRDRPPRLPRPRPRPITSPRP into the appropriate category?
// result medium

// query Would you mind sorting RRIRTRPPRLPRPRPRPKCAPRP into the appropriate category?
// result high

###

System: Escherichia coli TOP10;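 further: peptides expressed intracellularly from a pBAD plasmid library in pooled LB shake-flask culture, induced with 0.3% L-arabinose, DNA abundance read by NGS, three biological replicates, DESeq2 with apeglm shrinkage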
Assay: shrunken log2 fold change of peptide-encoding DNA abundance (4.5 h post-induction vs induction); higher = less antimicrobial activity (less host growth inhibition)
Details: time post-induction: 4.5 h; library: site-saturation at positions 5, 18, 19, 20
Measured property: shrunken log2 fold change
Please respond with just the number, no unit label.

Some sequences with recorded shrunken log2 fold change:
RRIRRRPPRLPRPRPRPAVMPRP = 0.0975
RRIRPRPPRLPRPRPRPNSYPRP = -0.464
RRIRNRPPRLPRPRPRPKVPPRP = -0.129
RRIRGRPPRLPRPRPRPKYSPRP = -0.156
RRIRWRPPRLPRPRPRPIHKPRP = -0.0298

// query Tell me the measured shrunken log2 fold change of RRIRGRPPRLPRPRPRPTKWPRP , please.
// result 0.262

// query Tell me the measured shrunken log2 fold change of RRIRERPPRLPRPRPRPLDYPRP , please.
// result -0.163

// query Tell me the measured shrunken log2 fold change of RRIRYRPPRLPRPRPRPNSPPRP , please.
// result -0.21

// query Tell me the measured shrunken log2 fold change of RRIRWRPPRLPRPRPRPNHIPRP , please.
// result -0.569

// query Tell me the measured shrunken log2 fold change of RRIRFRPPRLPRPRPRPNGYPRP , please.
// result -0.3

// query Tell me the measured shrunken log2 fold change of RRIRHRPPRLPRPRPRPRWQPRP , please.
// result 0.176

// query Tell me the measured shrunken log2 fold change of RRIRERPPRLPRPRPRPNYTPRP , please.
// result -0.773

// query Tell me the measured shrunken log2 fold change of RRIRDRPPRLPRPRPRPSQEPRP , please.
// result 0.111

// query Tell me the measured shrunken log2 fold change of RRIRWRPPRLPRPRPRPFWIPRP , please.
// result 0.0876

// query Tell me the measured shrunken log2 fold change of RRIRQRPPRLPRPRPRPFHLPRP , please.
// result -0.0558
